ASSAY_INFO: UV/Vis absorbance at 400 nm and Yellowness Index of the ring-open isomer
Format: physicochemical
REPORTED_CONDITIONS: 2×10^−5 M solution, 1 cm pathlength cuvette
MEASURED_QUANTITY: Abs @ 400 nm, RO (Absorption of ring-open isomer at 400 nm)
Write the value as a bare number.

Look over these answered cases.
COc1cc2oc(-c3ccc(C(C)(C)C)cc3)c(C3=C(c4cc(-c5cc6c(s5)C(C)(C)CC6(C)C)sc4-c4cc5c(s4)C(C)(C)CC5(C)C)C(F)(F)C(F)(F)C3(F)F)c2cc1OC [Chromophore S404]
0.182
CC(C)(C)c1ccc(-c2oc3ccccc3c2C2=C(c3cc(-c4ccc(C(C)(C)C)s4)sc3-c3ccc(C(C)(C)C)s3)C(F)(F)C(F)(F)C2(F)F)cc1 [Chromophore S343]
0.11
CCOC(=O)CCCOc1cc2oc(-c3ccc(C(C)(C)C)cc3)c(C3=C(c4cc(-c5sc(C(C)(C)C)cc5C)sc4-c4sc(C(C)(C)C)cc4C)C(F)(F)C(F)(F)C3(F)F)c2cc1OCCCC(=O)OCC [Chromophore S384]
0.107
CCOC(=O)CCCOc1cc2oc(-c3ccc(C(C)(C)C)cc3)c(C3=C(c4cc(-c5cc6c(s5)C(C)(C)CCC6(C)C)sc4-c4cc5c(s4)C(C)(C)CCC5(C)C)C(F)(F)C(F)(F)C3(F)F)c2cc1OCCCC(=O)OCC [Chromophore S387]
0.146

Next, consider the following molecule.
Record CC(C)(C)c1ccc(-c2oc3cc(OCCN4CCOC4=O)c(OCCN4CCOC4=O)cc3c2C2=C(c3cc(-c4cc5c(s4)C(C)(C)CCC5(C)C)sc3-c3cc4c(s3)C(C)(C)CCC4(C)C)C(F)(F)C(F)(F)C2(F)F)cc1 [Chromophore S390] . Reported Abs @ 400 nm, RO (Absorption of ring-open isomer at 400 nm): 0.133
